Reference for the values: patent US20250223303A1

System: Acinetobacter baumannii WX-AB005
Assay: MIC test of compounds in combination with antibiotics, Acinetobacter baumannii WX-AB005
Settings: Biapenem + compound (8 μg/mL)
reportedEndpoint: MIC of biapenem in combination with compound, Acinetobacter baumannii WX-AB005 (µg/mL)
Response body: numeric value in µg/mL, unit text excluded.

stdin: Given the compound C[C@H](Sc1ccc2c(c1C(=O)O)OB(O)[C@@H]1C[C@H]21)C1CN(C)C1 [Compound 20-a] , what is its reported MIC of biapenem in combination with compound, Acinetobacter baumannii WX-AB005?
stdout: 2

stdin: For O=C(O)c1c(SCCN2CCOCC2)ccc2c1OB(O)C1CC21 (single isomer, unassigned) [Compound 15-a] , what is its reported MIC of biapenem in combination with compound, Acinetobacter baumannii WX-AB005?
stdout: 4

stdin: May I ask what MIC of biapenem in combination with compound, Acinetobacter baumannii WX-AB005 has been recorded for CC(Sc1ccc2c(c1C(=O)O)OB(O)C1CC21)C1CCOCC1 (single isomer, unassigned) [Compound 17-a] ?
stdout: 4

stdin: Given the compound CC(Sc1ccc2c(c1C(=O)O)OB(O)C1CC21)C1CC1 (single isomer, unassigned) [Compound 16-a] , what is its reported MIC of biapenem in combination with compound, Acinetobacter baumannii WX-AB005?
stdout: 2

stdin: Item under review: CC(Sc1ccc2c(c1C(=O)O)OB(O)C1CC21)C1CC1 (single isomer, unassigned) [Compound 16-d] . Reported MIC of biapenem in combination with compound, Acinetobacter baumannii WX-AB005?
stdout: 2

stdin: Look up MIC of biapenem in combination with compound, Acinetobacter baumannii WX-AB005 for this compound: C[C@H](Sc1ccc2c(c1C(=O)O)OB(O)[C@@H]1C[C@H]21)[C@@H]1CCCO1 [Compound 18-a]
stdout: 4

stdin: If you can, please state the reported MIC of biapenem in combination with compound, Acinetobacter baumannii WX-AB005 value of C[C@@H](Sc1ccc2c(c1C(=O)O)OB(O)[C@H]1C[C@@H]21)[C@@H]1CCCO1 [Compound 18-d] .
stdout: 4

stdin: Find the recorded MIC of biapenem in combination with compound, Acinetobacter baumannii WX-AB005 belonging to NC1COCC1Sc1ccc2c(c1C(=O)O)OB(O)C1CC21 (single isomer, unassigned) [Compound 10_P2] and report it.
stdout: 1

stdin: Which MIC of biapenem in combination with compound, Acinetobacter baumannii WX-AB005 is listed for CC(Sc1ccc2c(c1C(=O)O)OB(O)C1CC21)C1CC1 (single isomer, unassigned) [Compound 16-b] ?
stdout: 4

stdin: I would be grateful if you could share the reported MIC of biapenem in combination with compound, Acinetobacter baumannii WX-AB005 for CC(Sc1ccc2c(c1C(=O)O)OB(O)C1CC21)C1CCOCC1 (single isomer, unassigned) [Compound 17-b] .
stdout: 4

stdin: Consider the compound NC1COCC1Sc1ccc2c(c1C(=O)O)OB(O)C1CC21 (single isomer, unassigned) [Compound 11_P2] and give its measured MIC of biapenem in combination with compound, Acinetobacter baumannii WX-AB005.
stdout: 1

stdin: Which MIC of biapenem in combination with compound, Acinetobacter baumannii WX-AB005 value belongs to NC1COCC1Sc1ccc2c(c1C(=O)O)OB(O)C1CC21 (single isomer, unassigned) [Compound 10_P1] ?
stdout: 2

stdin: So what does the record say about MIC of biapenem in combination with compound, Acinetobacter baumannii WX-AB005 for NC1COCC1Sc1ccc2c(c1C(=O)O)OB(O)C1CC21 (single isomer, unassigned) [Compound 11_P1] ?
stdout: 1

stdin: Item CC(Sc1ccc2c(c1C(=O)O)OB(O)C1CC21)C1CC1 (single isomer, unassigned) [Compound 16-c] has what recorded MIC of biapenem in combination with compound, Acinetobacter baumannii WX-AB005?
stdout: 4

stdin: Using the record for O=C(O)c1c(SCCN2CCOCC2)ccc2c1OB(O)C1CC21 (single isomer, unassigned) [Compound 15-b] , report its MIC of biapenem in combination with compound, Acinetobacter baumannii WX-AB005.
stdout: 2

---

Would you kindly list pIC50 for each of these compounds?
Target: OXA-10 (Pseudomonas aeruginosa)
Sequence (P14489 20-266): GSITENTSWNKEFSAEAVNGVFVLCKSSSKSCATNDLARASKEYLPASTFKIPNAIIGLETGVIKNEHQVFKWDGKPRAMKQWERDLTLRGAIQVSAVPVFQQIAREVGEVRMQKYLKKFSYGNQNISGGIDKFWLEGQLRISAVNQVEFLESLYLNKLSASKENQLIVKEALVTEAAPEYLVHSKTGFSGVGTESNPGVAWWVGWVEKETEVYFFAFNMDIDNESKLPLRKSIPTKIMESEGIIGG
Assay: Enzyme activity test (FC5 fluorescent substrate), OXA-10
Settings: enzyme 350 pM, substrate FC5 50 μM
Note on pIC50: it is the negative log10 of concentration, concentration in mol/L.

stdin: Look up pIC50: "CN1CC(CCSc2ccc3c(c2C(=O)O)OB(O)[C@@H]2C[C@H]32)C1"
stdout: 7.40

stdin: Which measured pIC50 value corresponds to NCCNC1CCC(CC(=O)N[C@H]2Cc3cccc(C(=O)O)c3OB2O)CC1 (stereo partly drawn) [VNRX-5133, reference compound] ?
stdout: 6.33

stdin: # pIC50 lookup, item NC(=O)[C@@H]1CC[C@@H]2CN1C(=O)N2OS(=O)(=O)O [Avibactam, reference compound]
stdout: 5.24

stdin: Look up pIC50: "O=C(O)c1c(S[C@H]2CCOC2)ccc2c1OB(O)[C@@H]1C[C@H]21"
stdout: 8.43

stdin: Which value of pIC50 has been reported for "CC(C)Sc1ccc2c(c1C(=O)O)OB(O)[C@@H]1C[C@H]21" in the records?
stdout: 8.17

stdin: Form field: reported pIC50 of "CSc1ccc2c(c1C(=O)O)OB(O)[C@@H]1C[C@H]21"
stdout: 8.00

---

I'd be grateful if you could share measured IC50 for these entries.
Could you give me the number in nM? Just the number is fine.

stdin: Form field: IC50 recorded for "CC(C)Sc1ccc2c(c1C(=O)O)OB(O)[C@@H]1C[C@H]21" with OXA-48 (Klebsiella pneumoniae, UniProt Q6XEC0) (enter value)
stdout: 0.4

stdin: API: value(readout= IC50, system= OXA-48 (Klebsiella pneumoniae, UniProt Q6XEC0), query= "CN1CC(CCSc2ccc3c(c2C(=O)O)OB(O)[C@@H]2C[C@H]32)C1" )
stdout: 1

stdin: Form field - read-out: IC50; system: OXA-48 (Klebsiella pneumoniae, UniProt Q6XEC0); submitted item: "O=C(O)c1c(S[C@H]2CCOC2)ccc2c1OB(O)[C@@H]1C[C@H]21"
Sequence (Q6XEC0 23-265 limits assumed): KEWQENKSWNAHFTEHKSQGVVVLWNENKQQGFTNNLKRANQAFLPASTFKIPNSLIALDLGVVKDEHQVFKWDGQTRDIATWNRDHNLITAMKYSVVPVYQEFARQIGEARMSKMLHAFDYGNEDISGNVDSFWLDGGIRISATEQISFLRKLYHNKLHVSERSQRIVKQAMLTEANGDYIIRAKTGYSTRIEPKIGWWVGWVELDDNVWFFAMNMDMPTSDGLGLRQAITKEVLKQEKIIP
stdout: 0.07

stdin: Query for OXA-48 (Klebsiella pneumoniae, UniProt Q6XEC0): what IC50 does the record show for NCCNC1CCC(CC(=O)N[C@H]2Cc3cccc(C(=O)O)c3OB2O)CC1 (some centres unmarked) [VNRX-5133, reference compound] ?
stdout: 343

stdin: Field: IC50 (OXA-48 (Klebsiella pneumoniae, UniProt Q6XEC0)). Entry: "CSc1ccc2c(c1C(=O)O)OB(O)[C@@H]1C[C@H]21"
stdout: 0.2

---

Test system: Acinetobacter baumannii ARLG-1791 OXA-23
Test: MIC test of compounds in combination with antibiotics, Acinetobacter baumannii ARLG-1791
Details: Biapenem + compound (8 μg/mL)
reportedEndpoint: MIC of biapenem in combination with compound, Acinetobacter baumannii ARLG-1791 OXA-23 (µg/mL)
Record the value in µg/mL, omitting the unit from your answer.

stdin: Give Acinetobacter baumannii ARLG-1791 OXA-23 MIC of biapenem in combination with compound, Acinetobacter baumannii ARLG-1791 OXA-23 for O=C(O)c1c(SCCN2CCOCC2)ccc2c1OB(O)C1CC21 (single isomer, unassigned) [Compound 15-a]
stdout: 2

stdin: Enter reported MIC of biapenem in combination with compound, Acinetobacter baumannii ARLG-1791 OXA-23 observed with Acinetobacter baumannii ARLG-1791 OXA-23 for CC(Sc1ccc2c(c1C(=O)O)OB(O)C1CC21)C1CC1 (single isomer, unassigned) [Compound 16-c]
stdout: 1

stdin: Reported MIC of biapenem in combination with compound, Acinetobacter baumannii ARLG-1791 OXA-23 for Acinetobacter baumannii ARLG-1791 OXA-23, given O=C(O)c1c(SCCN2CCOCC2)ccc2c1OB(O)C1CC21 (single isomer, unassigned) [Compound 15-b] ?
stdout: 0.5

stdin: Request - read-out MIC of biapenem in combination with compound, Acinetobacter baumannii ARLG-1791 OXA-23 | tested on Acinetobacter baumannii ARLG-1791 OXA-23 | molecule NC1COCC1Sc1ccc2c(c1C(=O)O)OB(O)C1CC21 (single isomer, unassigned) [Compound 10_P2]
stdout: 0.25

stdin: # query: MIC of biapenem in combination with compound, Acinetobacter baumannii ARLG-1791 OXA-23 | item "C[C@H](Sc1ccc2c(c1C(=O)O)OB(O)[C@@H]1C[C@H]21)[C@@H]1CCCO1" | system: Acinetobacter baumannii ARLG-1791 OXA-23
stdout: 0.5

stdin: Give recorded MIC of biapenem in combination with compound, Acinetobacter baumannii ARLG-1791 OXA-23 with Acinetobacter baumannii ARLG-1791 OXA-23 for the following molecule: "C[C@@H](Sc1ccc2c(c1C(=O)O)OB(O)[C@H]1C[C@@H]21)[C@@H]1CCCO1"
stdout: 1

stdin: Query MIC of biapenem in combination with compound, Acinetobacter baumannii ARLG-1791 OXA-23 on Acinetobacter baumannii ARLG-1791 OXA-23 for CC(Sc1ccc2c(c1C(=O)O)OB(O)C1CC21)C1CC1 (single isomer, unassigned) [Compound 16-b]
stdout: 1
